Recorded NF-kB reporter by entry
# Tested on: RAW-Dual (murine macrophage reporter line)
# Procedure Text: NF-kB reporter (SEAP) activity fold change vs agonist alone; higher = enhanced NF-kB activity
# Run Parameters: modulator concentration 10 µM; agonist: CpG ODN 1826 0.5 ug/mL
Parameter: NF-kB reporter

COc1cc(CNCCc2ccc(OC)c(OC)c2)cc(OC)c1 : 0.973
CC(=O)C1CCC2C3CCC4CC(O)CCC4(C)C3CCC12C (configuration not stated) : 1.17
CCC1(c2ccccc2)C(=O)N(Cc2ccccc2)C(=O)N(Cc2ccccc2)C1=O : 0.516
CC(=O)Oc1ccc(C=Cc2cc(OC(C)=O)cc(OC(C)=O)c2)cc1 : 1.12
CCOc1cc(C=C2N=C(c3cccc(C)c3)OC2=O)ccc1OC(=O)Cc1ccccc1 : 0.858
CC(=O)OC1CCC2(C)C(=CCC3C4CCC(=O)C4(C)CCC32)C1 (configuration not stated) : 0.92
Nc1nc(N)nc(NC2CC2)n1 : 1.47
C[C@@H]1CC[C@H]2[C@@H](C)C(=O)O[C@@H]3O[C@@]4(C)CC[C@@H]1[C@]32OO4 : 0.961
Cl.N=C(N)NN : 0.983
OCC(O)Cc1ccc2c(c1)OCO2 (configuration not stated) : 1.02
Cc1c(NC=C2C(=O)NC(=O)NC2=O)c(=O)n(-c2ccccc2)n1C : 0.967
COc1cc(C2c3cc4c(c(O)c3CC3COC(=O)C32)OCO4)cc(OC)c1OC (configuration not stated) : 2.38
